# system-name: α-Synuclein (αS) aggregation (Homo sapiens, UniProt P37840)
# Construct: made in house; host or cells: E. coli BL21(DE3)
# experiment: Thioflavin T (ThT) dye-based αS aggregation assay (de novo)
# Type: biochemical
# experimental-parameters: Fig. 5f profile, time 24 hr
readout-kind: ThT fluorescence intensity, Average
Write the value as a bare number.

Q. What does the data say about its ThT fluorescence intensity, Average? Entry: OCCc1ccc(O)cc1 [Tyrosol]
A. 78.6667

Q. What does the data say about its ThT fluorescence intensity, Average? Entry: C=C(c1ccc(C(=O)O)cc1)c1cc2c(cc1C)C(C)(C)CCC2(C)C [Bexarotene]
A. 42

Q. What does the data say about its ThT fluorescence intensity, Average? Entry: O=C(O[C@@H]1Cc2c(O)cc(O)cc2O[C@@H]1c1cc(O)c(O)c(O)c1)c1cc(O)c(O)c(O)c1 [EGCG]
A. 61.3333

Q. What does the data say about its ThT fluorescence intensity, Average? Entry: CCCC(CCC)C(=O)O [Valporic acid]
A. 135.333

Q. What does the data say about its ThT fluorescence intensity, Average? Entry: Cc1ccc(NC(=O)c2ccc(NC(=O)c3ccc([N+](=O)[O-])c(NCCc4c[nH]c5ccccc45)n3)c(NCC3CCCCC3)n2)c(OCC(=O)O)n1 [NS132]
A. 46

----------
# system-name: α-Synuclein (αS) aggregation (Homo sapiens)
# Construct: made in house; host or cells: E. coli BL21(DE3)
# experiment: Thioflavin T (ThT) dye-based αS aggregation assay (de novo)
# Assay type: biochemical
# experimental-parameters: Fig. 5f profile, time 96 hr
Field: label. Allowed values: 1 (yes) (ThT fluorescence intensity, Average < 200) or 0 (no) (ThT fluorescence intensity, Average >= 200).

Q. Is ThT fluorescence intensity, Average of `O=C(O[C@@H]1Cc2c(O)cc(O)cc2O[C@@H]1c1cc(O)c(O)c(O)c1)c1cc(O)c(O)c(O)c1` strictly below 200?
A. 1 (yes)

Q. Is ThT fluorescence intensity, Average of `C=C(c1ccc(C(=O)O)cc1)c1cc2c(cc1C)C(C)(C)CCC2(C)C` strictly below 200?
A. 1 (yes)

Q. Is ThT fluorescence intensity, Average of `Cc1ccc(NC(=O)c2ccc(NC(=O)c3ccc([N+](=O)[O-])c(NCCc4c[nH]c5ccccc45)n3)c(NCC3CCCCC3)n2)c(OCC(=O)O)n1` strictly below 200?
A. 1 (yes)

Q. Is ThT fluorescence intensity, Average of `CCCC(CCC)C(=O)O` strictly below 200?
A. 1 (yes)

Q. Is ThT fluorescence intensity, Average of `OCCc1ccc(O)cc1` strictly below 200?
A. 0 (no)

----------
# system-name: α-Synuclein (αS) aggregation (Homo sapiens, UniProt P37840)
# Construct: made in house; host or cells: E. coli BL21(DE3)
# experiment: Thioflavin T (ThT) dye-based αS aggregation assay (de novo)
# Format: biochemical
# experimental-parameters: Fig. 5f profile, time 36 hr
readout-kind: ThT fluorescence intensity, Average
Write the value as a bare number.

Q. What does the data say about its ThT fluorescence intensity, Average? Entry: Cc1ccc(NC(=O)c2ccc(NC(=O)c3ccc([N+](=O)[O-])c(NCCc4c[nH]c5ccccc45)n3)c(NCC3CCCCC3)n2)c(OCC(=O)O)n1 [NS132]
A. 47.6667

Q. What does the data say about its ThT fluorescence intensity, Average? Entry: CCCC(CCC)C(=O)O [Valporic acid]
A. 121.333

Q. What does the data say about its ThT fluorescence intensity, Average? Entry: OCCc1ccc(O)cc1 [Tyrosol]
A. 140.667

Q. What does the data say about its ThT fluorescence intensity, Average? Entry: C=C(c1ccc(C(=O)O)cc1)c1cc2c(cc1C)C(C)(C)CCC2(C)C [Bexarotene]
A. 69.6667

Q. What does the data say about its ThT fluorescence intensity, Average? Entry: O=C(O[C@@H]1Cc2c(O)cc(O)cc2O[C@@H]1c1cc(O)c(O)c(O)c1)c1cc(O)c(O)c(O)c1 [EGCG]
A. 75.6667

----------
# system-name: α-Synuclein (αS) aggregation (Homo sapiens, UniProt P37840)
# Construct: made in house; host or cells: E. coli BL21(DE3)
# experiment: Thioflavin T (ThT) dye-based αS aggregation assay (de novo)
# Assay type: biochemical
# experimental-parameters: Fig. 5f profile, time 12 hr
readout-kind: ThT fluorescence intensity, Average
Write the value as a bare number.

Q. Give recorded ThT fluorescence intensity, Average with α-Synuclein (αS) aggregation (Homo sapiens, UniProt P37840) for the following compound: `CCCC(CCC)C(=O)O`
A. 66.6667

Q. Give recorded ThT fluorescence intensity, Average with α-Synuclein (αS) aggregation (Homo sapiens, UniProt P37840) for the following compound: `C=C(c1ccc(C(=O)O)cc1)c1cc2c(cc1C)C(C)(C)CCC2(C)C`
A. 52.3333

Q. Give recorded ThT fluorescence intensity, Average with α-Synuclein (αS) aggregation (Homo sapiens, UniProt P37840) for the following compound: `OCCc1ccc(O)cc1`
A. 49.6667

Q. Give recorded ThT fluorescence intensity, Average with α-Synuclein (αS) aggregation (Homo sapiens, UniProt P37840) for the following compound: `Cc1ccc(NC(=O)c2ccc(NC(=O)c3ccc([N+](=O)[O-])c(NCCc4c[nH]c5ccccc45)n3)c(NCC3CCCCC3)n2)c(OCC(=O)O)n1`
A. 44.3333

Q. Give recorded ThT fluorescence intensity, Average with α-Synuclein (αS) aggregation (Homo sapiens, UniProt P37840) for the following compound: `O=C(O[C@@H]1Cc2c(O)cc(O)cc2O[C@@H]1c1cc(O)c(O)c(O)c1)c1cc(O)c(O)c(O)c1`
A. 62.3333

----------
Can you tell me ThT fluorescence intensity, Average for the items I'm about to list?
# system-name: α-Synuclein (αS) aggregation (Homo sapiens)
# Construct: made in house; host or cells: E. coli BL21(DE3)
# experiment: Thioflavin T (ThT) dye-based αS aggregation assay (de novo)
# Format: biochemical
# experimental-parameters: Fig. 5f profile, time 48 hr

Q. What does the data say about its ThT fluorescence intensity, Average? Entry: `O=C(O[C@@H]1Cc2c(O)cc(O)cc2O[C@@H]1c1cc(O)c(O)c(O)c1)c1cc(O)c(O)c(O)c1`
A. 84

Q. What does the data say about its ThT fluorescence intensity, Average? Entry: `OCCc1ccc(O)cc1`
A. 137

Q. What does the data say about its ThT fluorescence intensity, Average? Entry: `Cc1ccc(NC(=O)c2ccc(NC(=O)c3ccc([N+](=O)[O-])c(NCCc4c[nH]c5ccccc45)n3)c(NCC3CCCCC3)n2)c(OCC(=O)O)n1`
A. 43.6667

Q. What does the data say about its ThT fluorescence intensity, Average? Entry: `CCCC(CCC)C(=O)O`
A. 133.333

Q. What does the data say about its ThT fluorescence intensity, Average? Entry: `C=C(c1ccc(C(=O)O)cc1)c1cc2c(cc1C)C(C)(C)CCC2(C)C`
A. 159.667

----------
# system-name: α-Synuclein (αS) aggregation (Homo sapiens, UniProt P37840)
# Construct: made in house; host or cells: E. coli BL21(DE3)
# experiment: Thioflavin T (ThT) dye-based αS aggregation assay (de novo)
# Format: biochemical
# experimental-parameters: 100 µM αS + equimolar ligand, comparison with reported ligands Fig. 5f, time 0 hr
Can you tell me ThT fluorescence intensity, Average for the items I'm about to list?
Write the value as a bare number.

Q. What does the data say about its ThT fluorescence intensity, Average? Entry: CCCC(CCC)C(=O)O [Valporic acid]
A. 62.3333

Q. What does the data say about its ThT fluorescence intensity, Average? Entry: C=C(c1ccc(C(=O)O)cc1)c1cc2c(cc1C)C(C)(C)CCC2(C)C [Bexarotene]
A. 55.6667

Q. What does the data say about its ThT fluorescence intensity, Average? Entry: OCCc1ccc(O)cc1 [Tyrosol]
A. 49.6667

Q. What does the data say about its ThT fluorescence intensity, Average? Entry: Cc1ccc(NC(=O)c2ccc(NC(=O)c3ccc([N+](=O)[O-])c(NCCc4c[nH]c5ccccc45)n3)c(NCC3CCCCC3)n2)c(OCC(=O)O)n1 [NS132]
A. 49.3333

Q. What does the data say about its ThT fluorescence intensity, Average? Entry: O=C(O[C@@H]1Cc2c(O)cc(O)cc2O[C@@H]1c1cc(O)c(O)c(O)c1)c1cc(O)c(O)c(O)c1 [EGCG]
A. 56

----------
Can you tell me ThT intensity relative to Synuclein alone (=1), Average for the items I'm about to list?
# system-name: α-Synuclein (αS) aggregation (Homo sapiens)
# Construct: made in house; host or cells: E. coli BL21(DE3)
# experiment: Thioflavin T (ThT) dye-based αS aggregation assay (de novo)
# Type: biochemical
# experimental-parameters: 100 µM αS, four days, equimolar
Write the value as a bare number.

Q. What does the data say about its ThT intensity relative to Synuclein alone (=1), Average? Entry: `Cc1ccc(NC(=O)c2ccc([N+](=O)[O-])c(NCCc3ccc(O)cc3)n2)c(OCC(=O)O)n1`
A. 0.7268

Q. What does the data say about its ThT intensity relative to Synuclein alone (=1), Average? Entry: `Cc1ccc([N+](=O)[O-])c(OCC2CCCCC2)n1`
A. 0.6644

Q. What does the data say about its ThT intensity relative to Synuclein alone (=1), Average? Entry: `Cc1ccc([N+](=O)[O-])c(OCC(=O)O)n1`
A. 0.2889

Q. What does the data say about its ThT intensity relative to Synuclein alone (=1), Average? Entry: `Cc1ccc(NC(=O)c2ccc(NC(=O)c3ccc([N+](=O)[O-])c(NCC4CCCCC4)n3)c(NCC3CCCCC3)n2)c(OCC(=O)O)n1`
A. 0.4588

Q. What does the data say about its ThT intensity relative to Synuclein alone (=1), Average? Entry: `Cc1ccc(NC(=O)c2ccc([N+](=O)[O-])c(NCCc3c[nH]c4ccccc34)n2)c(OCC(=O)O)n1`
A. 0.08383

Q. What does the data say about its ThT intensity relative to Synuclein alone (=1), Average? Entry: `Cc1ccc(NC(=O)c2ccc([N+](=O)[O-])c(NCC3CCCCC3)n2)c(OCC(=O)O)n1`
A. 0.04101

Q. What does the data say about its ThT intensity relative to Synuclein alone (=1), Average? Entry: `Cc1ccc(NC(=O)c2ccc(NC(=O)c3ccc([N+](=O)[O-])c(NCCc4ccc(O)cc4)n3)c(NCC3CCCCC3)n2)c(OCC(=O)O)n1`
A. 0.02443

Q. What does the data say about its ThT intensity relative to Synuclein alone (=1), Average? Entry: `Cc1ccc(NC(=O)c2ccc(NC(=O)c3ccc([N+](=O)[O-])c(NCCc4c[nH]c5ccccc45)n3)c(NCC3CCCCC3)n2)c(OCC(=O)O)n1`
A. 0.008333
